Reported corrected activity, negative = more killing values follow for various compounds
assay: small molecules boosting NK-mediated OVCAR3 lysis – imaging, primary NK cells, calcein-AM imaging, primary screen (AID 1508625); conditions: OVCAR3 lysis by primary NK cells, at 5 µM;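 also: compound given to NK cells 16 h before adding targets at 1.5 to 1 ratio; reference of the scale not given here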
property measured: corrected activity, negative = more killing (%)

compound: COc1ccc(C2Nc3ccccc3NC3=C2C(=O)CC(c2ccco2)C3)cc1 (stereo unspecified)
reading: -2.08
//
compound: COc1ccccc1Nc1ncc(C(=O)N2CCC(Cc3ccccc3)CC2)c2ccccc12
reading: -5.51
//
compound: CC1CCC2C(=O)N(c3ccc(NCCc4ccccn4)c([N+](=O)[O-])c3)C(=O)C2C1 (stereo unspecified)
reading: -4.66
//
compound: CCN1C(=O)c2cccc3c(NC(=O)C45CC6CC(CC(C6)C4)C5)ccc1c23
reading: -12.5
//
compound: CCCCCCCNC(=O)c1ccc2c(c1)ncn2-c1cccc(F)c1
reading: -3.62
//
compound: CCc1ccc(-n2c(CCC(=O)O)ccc2-c2ccc(F)cc2)cc1
reading: -1.11
//
compound: COc1ccc(CNC(=O)Cn2c(=S)[nH]c3ccccc3c2=O)cc1
reading: -4.59
//
compound: O=c1cc(O)c2c(n1-c1ccccc1)CCCC2
reading: -7.04
//
compound: CC1=C(C(=O)OCCc2ccccc2)C(c2coc3ccc(C)cc3c2=O)C2=C(CC(c3cccs3)CC2=O)N1 (stereo unspecified)
reading: 0.37
//
compound: O=c1c(=Nc2ccccc2O)c(=O)c2ccccc12
reading: -2.51
//
compound: CN1CCc2c(sc3c2C(=O)NC(c2cccc(OCc4ccccc4)c2)N3)C1 (stereo unspecified)
reading: -3.2
//
compound: COc1cc(OC)c(C=C2C(=O)NC(=S)N(c3ccc(Cl)cc3)C2=O)cc1Br
reading: -2.07
//
compound: COc1ccc(-n2c(=S)[nH]c3cc(C(=O)O)ccc3c2=O)c(OC)c1
reading: -4.6
//
compound: O=C(Nc1cccc(-c2nc3ccccc3o2)c1)C1CCCCC1
reading: -2.15
//
compound: Cc1c(C(=O)Nc2cccc([N+](=O)[O-])c2)sc2ncn(CC(=O)N3CCOCC3)c(=O)c12
reading: -2.14
//
compound: Cc1ccccc1NC(=O)OCc1ccccc1
reading: -1.84
//
compound: COc1ccc(-c2n[nH]c(=S)o2)cc1
reading: -4.44
//
compound: Cc1cc(Nc2ncnc3sc4c(c23)CCCC4)ccc1Br
reading: -1.91
//
compound: O=C(NCC1CCCO1)Nc1cccc(Cl)c1 (stereo unspecified)
reading: 1.53
//
compound: CCCCOc1ccc(C(=O)N2N=C(C)CC2(O)C(F)(F)F)cc1 (stereo unspecified)
reading: -6.48
//
compound: Cc1ccc2c(N)c(C#N)sc2n1
reading: -0.436
//
compound: O=C(Nc1nc(-c2ccc([N+](=O)[O-])cc2)cs1)c1ccccc1F
reading: -1.2
//
compound: O=C(O)c1cccc(N2C(=O)c3ccc(C(=O)c4ccc5c(c4)C(=O)N(c4cccc(C(=O)O)c4)C5=O)cc3C2=O)c1
reading: -1.17
//
compound: Cc1cc(C)c(C=Nc2ccc(-c3ccccc3[N+](=O)[O-])cc2)c(C)c1
reading: -4.49
//
compound: CCCNS(=O)(=O)c1ccc(F)c(C(=O)Nc2cc(C)ccc2OC)c1
reading: -6
//
compound: Cc1ccc(-c2cc(C(=O)O)c3cc(Cl)ccc3n2)cc1C
reading: -3.58
//
compound: O=C(Nc1nc2ccccc2s1)C(=O)Nc1nc2ccccc2s1
reading: 0.998
//
compound: O=C(CCCn1c(=S)[nH]c2cc3c(cc2c1=O)OCO3)N1CCN(Cc2ccc3c(c2)OCO3)CC1
reading: -2.04
//
compound: COc1ccc(-n2c(=S)[nH]c3cc(C(=O)NCc4ccc(Cl)cc4)ccc3c2=O)cc1
reading: -2.4
//
compound: FC(F)(F)c1cc(-c2cccs2)nc2nc(=S)[nH]n12
reading: -2.93
//
compound: COc1ccc(-n2c(=S)[nH]c3cc(C(=O)Nc4cc(C(N)=O)ccc4OC)ccc3c2=O)c(OC)c1
reading: -3.49
//
compound: Cc1ccc(C(=O)CC2(O)C(=O)N(C(C)C)c3ccccc32)c(C)c1 (stereo unspecified)
reading: -3.79
//
compound: CCOC(=O)c1cnc(SCc2ccccc2Cl)nc1N
reading: -1.75
//
compound: COc1ccc(C(=O)N2N=C(C3CCCCC3)CC2(O)C(F)(F)F)cc1OC (stereo unspecified)
reading: -5.29
//
compound: Cc1cc(C)cc(NC(=O)c2cc(S(=O)(=O)NC3CCCCC3)ccc2F)c1
reading: -5.25
//
compound: O=C1C(=O)N(CO)C(c2ccccc2)C1=C(O)c1ccccc1 (stereo unspecified)
reading: -3.26
